The origin of these recorded values is ChEMBL document CHEMBL3988442.

Collected Percent Effect values appear next to each entry.
- Tested on: Plasmodium falciparum
- TEST_NAME: Calibr Malaria Delayed Death Assay SOP
- Type: functional, organism-based
- Set-up: scale not given: in the data most compounds retested in dose-response had high values
- EXPERIMENTAL_SETUP: concentration 4.99e-06 (unit not given; other assays of the set use mol/L)
Hit rate of the full screen: of about 38,000 compounds, about 1,200 (3.2%) showed an effect of 50% or more. The median lay at about -58%. Shown is part of a subset that was picked to be rich in strong results.
PROPERTY_LABEL: Percent Effect

> print(dat)
                                   compound   result
1  Cn1cc(C2(C)CN(Cc3ccc(Cl)c(F)c3)CCO2)cn1 (stereo not given)  -40.79%
2   O=C(c1c[nH]c2ncccc12)N(Cc1ccco1)C1CCCC1   86.68%
3  CN(Cc1ccc(N2CCOCC2)cc1)Cc1noc(C(C)(C)C)n1  -81.05%
4  O=C(O)CN1CCC(c2ccccc2)C1 (stereo not given)  -52.87%
5  COc1ccc(-n2ccc(C(=O)NCCN3CCCCC3C)n2)cc1 (stereo not given)   -78.7%
